- Test system: 282377-053-R-J1-PDC complex spheroid viability
- MEASUREMENT_NOTES: Anticancer human tumor 282377-053-R-J1-PDC patient-derived colon adenocarcinoma cell line growth inhibition [RAS]; active means viability on the fitted dose curve at most 10% of control; inactive means the rest
- TEST_CONTEXT: compound 10 µM
Pick one and only one: label 1 = active, label 0 = inactive

C[C@@H](NC(=O)c1ncnc(N)c1Cl)c1ncc(C(=O)Nc2cc(C(F)(F)F)c(Cl)cn2)s1    label 0

[Q] What outcome does the record of this test show for CCC(CC)c1cc(NC2CCC(N)C2)n2nccc2n1 (configuration not stated) ?
[A] label 1

[Q] Dear colleague, could you share the recorded outcome for CC(C)NCC(C(=O)N1CCN(c2ncnc3c2C(C)CC3O)CC1)c1ccc(Cl)cc1 (configuration not stated) when you have a moment?
[A] label 0

====

- Tested on: 282377-053-R-J1-PDC complex spheroid viability
- MEASUREMENT_NOTES: Anticancer human tumor 282377-053-R-J1-PDC cell line growth inhibition [RAS];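 further: spheroids exposed to agents for seven days before readout; luminescence viability as percent of DMSO vehicle control wells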
- TEST_CONTEXT: second compound 1 µM; first compound 0.3 µM; stronger effect = lower value
READOUT_NAME: viability, T/C (%)
Numbers only, in %.

CC1(C)CCC(Nc2ncc(C(F)(F)F)c(-c3c[nH]c4c(P(C)(C)=O)c(C#N)ccc34)n2)CN1 (centres undefined) + C=CC(=O)N1CCN(c2nc(OCC3CCCN3C)nc3c(F)c(-c4nc(N)cc(C)c4C(F)(F)F)c(Cl)cc23)C(C)C1    71.8
CCc1c2c(nc3ccc(O)cc13)-c1cc3c(c(=O)n1C2)COC(=O)[C@]3(O)CC + C#Cc1c(F)ccc2cc(O)cc(-c3ncc4c(N5CC6CCC(C5)N6)nc(OCC56CCCN5CC(F)C6)nc4c3F)c12    61
CCc1c2c(nc3ccc(O)cc13)-c1cc3c(c(=O)n1C2)COC(=O)[C@]3(O)CC + C=CC(=O)N1CCN(c2nc(OCC3CCCN3C)nc3c(F)c(-c4nc(N)cc(C)c4C(F)(F)F)c(Cl)cc23)C(C)C1    61.2

[Q] Query viability, T/C for CC1(C)CCC(Nc2ncc(C(F)(F)F)c(-c3c[nH]c4c(P(C)(C)=O)c(C#N)ccc34)n2)CN1 (centres undefined) + C#Cc1c(F)ccc2cc(O)cc(-c3ncc4c(N5CC6CCC(C5)N6)nc(OCC56CCCN5CC(F)C6)nc4c3F)c12
[A] 67.7

====

- Tested on: 282377-053-R-J1-PDC complex spheroid viability
- MEASUREMENT_NOTES: Anticancer human tumor 282377-053-R-J1-PDC cell line growth inhibition [RAS];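 further: spheroids exposed to agents for seven days before readout; luminescence viability as percent of DMSO vehicle control wells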
- TEST_CONTEXT: second compound 0.1 µM; first compound 0.316 µM; stronger effect = lower value
Rule: viability, T/C below 90% gives 1.0, anything at or above gives 0.0.

[Q] Is viability, T/C strictly under 90% for the entry NC1c2ccccc2OC12CCN(c1cnc3c(N4CCCc5ncccc54)n[nH]c3n1)CC2 (stereo not given) + C=CC(=O)N1CCN(c2nc(OCC3CCCN3C)nc3c(F)c(-c4nc(N)cc(C)c4C(F)(F)F)c(Cl)cc23)C(C)C1 ?
[A] 1.0

[Q] Here's an entry: CC(C)NCC(C(=O)N1CCN(c2ncnc3c2C(C)CC3O)CC1)c1ccc(Cl)cc1 (stereo not given) + C#Cc1c(F)ccc2cc(O)cc(-c3ncc4c(N5CC6CCC(C5)N6)nc(OCC56CCCN5CC(F)C6)nc4c3F)c12 . Is its viability, T/C below 90%?
[A] 1.0

[Q] A record lists CC(C)NCC(C(=O)N1CCN(c2ncnc3c2C(C)CC3O)CC1)c1ccc(Cl)cc1 (stereo not given) + C=CC(=O)N1CCN(c2nc(OCC3CCCN3C)nc3c(F)c(-c4nc(N)cc(C)c4C(F)(F)F)c(Cl)cc23)C(C)C1 . Is its viability, T/C below 90%?
[A] 0.0

[Q] Please determine if O=C(c1ccc(F)c(F)c1Nc1ccc(I)cc1F)N1CC(O)([C@@H]2CCCCN2)C1 + C=CC(=O)N1CCN(c2nc(OCC3CCCN3C)nc3c(F)c(-c4nc(N)cc(C)c4C(F)(F)F)c(Cl)cc23)C(C)C1 is below 90% in terms of viability, T/C.
[A] 1.0

[Q] Item NC1c2ccccc2OC12CCN(c1cnc3c(N4CCCc5ncccc54)n[nH]c3n1)CC2 (stereo not given) + C#Cc1c(F)ccc2cc(O)cc(-c3ncc4c(N5CC6CCC(C5)N6)nc(OCC56CCCN5CC(F)C6)nc4c3F)c12 : viability, T/C beneath 90%, strictly?
[A] 0.0

[Q] # check: viability, T/C < 90% for C=CC(=O)Nc1cc(Nc2nccc(-c3cn(C)c4ccccc34)n2)c(OC)cc1N(C)CCN(C)C + C#Cc1c(F)ccc2cc(O)cc(-c3ncc4c(N5CC6CCC(C5)N6)nc(OCC56CCCN5CC(F)C6)nc4c3F)c12
[A] 0.0

[Q] Input CC1(O)CCCC1n1c(=O)c(C(F)F)cc2cnc(NC3CCN(S(C)(=O)=O)CC3)nc21 (stereo not given) + C#Cc1c(F)ccc2cc(O)cc(-c3ncc4c(N5CC6CCC(C5)N6)nc(OCC56CCCN5CC(F)C6)nc4c3F)c12 ; condition: viability, T/C strictly below 90%. Does it hold?
[A] 0.0

====

- System: 282377-053-R-J1-PDC complex spheroid viability
- MEASUREMENT_NOTES: Anticancer human tumor 282377-053-R-J1-PDC cell line growth inhibition [RAS];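 further: spheroids exposed to agents for seven days before readout; luminescence viability as percent of DMSO vehicle control wells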
- TEST_CONTEXT: second compound 0.000949 µM; first compound 0.00949 µM; stronger effect = lower value
READOUT_NAME: viability, T/C (%)
One number for each entry, in %.

CCc1c2c(nc3ccc(O)cc13)-c1cc3c(c(=O)n1C2)COC(=O)[C@]3(O)CC + CCn1c(-c2cccnc2C(C)OC)c2c3cc(ccc31)N1CCOC(CC(NC(=O)C(C(C)C)N(C)C(=O)C3(F)CCN(C(=O)C#CC(C)(C)N(C)C)CC3)C(=O)N3CCCC(N3)C(=O)OCC(C)(C)C2)C1    161

Working through the 2 compounds below one at a time, give viability, T/C for each.
1. CC1(C)CCC(Nc2ncc(C(F)(F)F)c(-c3c[nH]c4c(P(C)(C)=O)c(C#N)ccc34)n2)CN1 (centres undefined) + CCn1c(-c2cc(N3CCN(C)CC3)cnc2C(C)OC)c2c3cc(ccc31)-c1csc(n1)CC(NC(=O)C1CC1C)C(=O)N1CCCC(N1)C(=O)OCC(C)(C)C2
2. CC1(C)CCC(Nc2ncc(C(F)(F)F)c(-c3c[nH]c4c(P(C)(C)=O)c(C#N)ccc34)n2)CN1 (centres undefined) + CCn1c(-c2cccnc2C(C)OC)c2c3cc(ccc31)N1CCOC(CC(NC(=O)C(C(C)C)N(C)C(=O)C3(F)CCN(C(=O)C#CC(C)(C)N(C)C)CC3)C(=O)N3CCCC(N3)C(=O)OCC(C)(C)C2)C1

[A]
[109, 115]

[Q] Respond only with viability, T/C recorded for CCc1c2c(nc3ccc(O)cc13)-c1cc3c(c(=O)n1C2)COC(=O)[C@]3(O)CC + CCn1c(-c2cc(N3CCN(C)CC3)cnc2C(C)OC)c2c3cc(ccc31)-c1csc(n1)CC(NC(=O)C1CC1C)C(=O)N1CCCC(N1)C(=O)OCC(C)(C)C2
[A] 153

====

What viability, T/C was measured for each of the following?
- Tested on: 282377-053-R-J1-PDC complex spheroid viability
- MEASUREMENT_NOTES: Anticancer human tumor 282377-053-R-J1-PDC cell line growth inhibition [RAS];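 further: spheroids exposed to agents for seven days before readout; luminescence viability as percent of DMSO vehicle control wells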
- TEST_CONTEXT: second compound 0.00949 µM; first compound 0.0316 µM; stronger effect = lower value
- Source text: RAS pathway inhibitors in Combinations in Complex Spheroids A high-throughput screen of multi-cell type tumor spheroids was designed to identify active combinations of RAS pathway inhibitors and targeted small molecules. Complex spheroids include a stromal component modeled by human endothelial cells (HUVEC) and fibroblasts modeled by human mesenchymal stem cells (MSCs). […] Compounds. […] If the clinical Cmax for an agent had not been determined, the highest concentration tested was 10 microM. […]
Answers are plain numbers, in %.

Please look at the items below and tell me viability, T/C for each one, in order.
1. Cc1nc(N2CCC3(CC2)COC(C)C3N)c(CO)nc1Sc1ccnc(N)c1Cl (stereo unspecified) + CCn1c(-c2cc(N3CCN(C)CC3)cnc2C(C)OC)c2c3cc(ccc31)-c1csc(n1)CC(NC(=O)C1CC1C)C(=O)N1CCCC(N1)C(=O)OCC(C)(C)C2
2. CC(=O)OC12COC1CC(O)C1(C)C(=O)C(O)C3=C(C)C(OC(=O)C(O)C(NC(=O)OC(C)(C)C)c4ccccc4)CC(O)(C(OC(=O)c4ccccc4)C21)C3(C)C (stereo unspecified) + CCn1c(-c2cccnc2C(C)OC)c2c3cc(ccc31)N1CCOC(CC(NC(=O)C(C(C)C)N(C)C(=O)C3(F)CCN(C(=O)C#CC(C)(C)N(C)C)CC3)C(=O)N3CCCC(N3)C(=O)OCC(C)(C)C2)C1
3. CC(C)NCC(C(=O)N1CCN(c2ncnc3c2C(C)CC3O)CC1)c1ccc(Cl)cc1 (stereo unspecified) + CCn1c(-c2cccnc2C(C)OC)c2c3cc(ccc31)N1CCOC(CC(NC(=O)C(C(C)C)N(C)C(=O)C3(F)CCN(C(=O)C#CC(C)(C)N(C)C)CC3)C(=O)N3CCCC(N3)C(=O)OCC(C)(C)C2)C1
4. CC(C)NCC(C(=O)N1CCN(c2ncnc3c2C(C)CC3O)CC1)c1ccc(Cl)cc1 (stereo unspecified) + CCn1c(-c2cc(N3CCN(C)CC3)cnc2C(C)OC)c2c3cc(ccc31)-c1csc(n1)CC(NC(=O)C1CC1C)C(=O)N1CCCC(N1)C(=O)OCC(C)(C)C2
5. CC1(O)CCCC1n1c(=O)c(C(F)F)cc2cnc(NC3CCN(S(C)(=O)=O)CC3)nc21 (stereo unspecified) + CCn1c(-c2cccnc2C(C)OC)c2c3cc(ccc31)N1CCOC(CC(NC(=O)C(C(C)C)N(C)C(=O)C3(F)CCN(C(=O)C#CC(C)(C)N(C)C)CC3)C(=O)N3CCCC(N3)C(=O)OCC(C)(C)C2)C1
6. CCN1CCN(Cc2ccc(Nc3ncc(F)c(-c4cc(F)c5nc(C)n(C(C)C)c5c4)n3)nc2)CC1 + CCn1c(-c2cc(N3CCN(C)CC3)cnc2C(C)OC)c2c3cc(ccc31)-c1csc(n1)CC(NC(=O)C1CC1C)C(=O)N1CCCC(N1)C(=O)OCC(C)(C)C2

[A]
[82.7, 54.8, 114, 93, 122, 96.2]
